target: Cacnb1 (rat); test: reporter assay of Huesken 2005; details: siRNA; further: test concentration or dose not given here
Oligonucleotides are given in HELM: sugar(base)linkage, 5' to 3'; d 2'-deoxyribose, r ribose, m 2'-O-methylribose, p phosphate. ss, as = sense and antisense strand
assay.metric: normalised inhibition (eCFP-eYFP dual reporter) (%)
One number for each entry, in %.

# substance, study.system, measured.value
rows = [
    ("RNA1{r(C)p.r(G)p.r(A)p.r(G)p.r(C)p.r(G)p.r(C)p.r(U)p.r(C)p.r(C)p.r(A)p.r(A)p.r(C)p.r(A)p.r(C)p.r(U)p.r(C)p.r(G)p.r(C)p.d(T)p.d(T)}|RNA2{r(G)p.r(C)p.r(G)p.r(A)p.r(G)p.r(U)p.r(G)p.r(U)p.r(U)p.r(G)p.r(G)p.r(A)p.r(G)p.r(C)p.r(G)p.r(C)p.r(U)p.r(C)p.r(G)p.d(A)p.d(T)}$$$RNA1{StrandType:ss}|RNA2{StrandType:as}$", "Cacnb1 (rat)", 15.2),
]

Now let's try a different one.
Record request: normalised inhibition (eCFP-eYFP dual reporter) value, item `RNA1{r(A)p.r(C)p.r(C)p.r(C)p.r(C)p.r(A)p.r(G)p.r(C)p.r(A)p.r(A)p.r(A)p.r(C)p.r(A)p.r(C)p.r(A)p.r(U)p.r(U)p.r(A)p.r(U)p.d(T)p.d(T)}|RNA2{r(A)p.r(U)p.r(A)p.r(A)p.r(U)p.r(G)p.r(U)p.r(G)p.r(U)p.r(U)p.r(U)p.r(G)p.r(C)p.r(U)p.r(G)p.r(G)p.r(G)p.r(G)p.r(U)p.d(T)p.d(G)}$$$RNA1{StrandType:ss}|RNA2{StrandType:as}$`
63.4

Where do these numbers come from? They come from the OligoGym collection.
